Test system: EKVX
assay summary: NCI tumour cell line growth inhibition, 48 h
Active and inactive are the calls of the source. No stated cut-off is given here; in the data, active = GI50 up to about 1.1 µM and inactive = higher.
experimental readout: GI50

compound	obs value
COc1cc(/C=C2/SC(c3ccccc3)N(c3ccccc3Cl)C2=O)cc(OC)c1OC (configuration not stated)	44.1 µM (inactive)
C[C@]12OC[C@H](c3ccccc3)N1C(=O)C1[C@H]2CC12SCCS2 (some centres not stated)	> 100 µM (inactive)
COc1cccc(CCNC(=O)Cc2ccccc2CCO)c1	> 100 µM (inactive)
CC(=O)O[C@H]1C(=O)[C@@]2(C)[C@H]([C@H](OC(=O)c3ccccc3)[C@@]3(O)C[C@H](O)C(C)=C1C3(C)C)[C@]1(OC(C)=O)CO[C@@H]1C[C@@H]2O	> 100 µM (inactive)
N#CC1(C2CC(=O)N(c3ccccc3)C2=O)CCCCC1=O (configuration not stated)	> 100 µM (inactive)
CC1C=C(OC(=O)c2ccccc2)C(=O)C(n2cc(F)c(=O)[nH]c2=O)O1 (configuration not stated)	> 100 µM (inactive)
N#Cc1c(N)nc(S)c(C#N)c1-c1ccccc1	> 100 µM (inactive)
CSC(=O)/C=C1\SS/C(=C\C(=O)SC)S1	2.4 µM (inactive)
COC(=O)C1=C(O)c2cc(-c3ccccc3)c(-c3ccccc3)c(C#N)c2NC(=O)C1	> 100 µM (inactive)
O=C1/C(=C\Oc2ccc(F)cc2)N2CCC1CC2	55.5 µM (inactive)
O=c1c(C(c2ccc(OCc3ccccc3)cc2)c2c(O)oc3ccccc3c2=O)c(O)oc2ccccc12	39 µM (inactive)
C[n+]1ccc(Nc2ccc(NC(=O)c3ccc(Nc4cc[n+](C)c5ccc([N+](=O)[O-])cc45)cc3[N+](=O)[O-])cc2)cc1	47.6 µM (inactive)
CCOC1OC(=O)c2cc3ccc4c(c3c(-c3ccc5c(c3)OCO5)c21)OCO4 (configuration not stated)	3.54 µM (inactive)
COc1ccc2nc(-n3c(/C=C/c4ccccc4O)nc4ccccc4c3=O)sc2c1	8.51 µM (inactive)
COC1=CCC2=C(CCN(C(=O)C3CC3)C2Cc2ccc(OC)c(O)c2)C1 (configuration not stated)	47.1 µM (inactive)
CN(CCCN1C(=O)c2cccc3cc([N+](=O)[O-])cc(c23)C1=O)CCN(C)CCCN1C(=O)c2cccc3cc([N+](=O)[O-])cc(c23)C1=O	> 39.3 µM (inactive)
COc1cc2cccc(/N=C\c3ccccc3Cl)c2cc1OC	> 100 µM (inactive)
Cc1cccc(C)c1NC(=O)CCc1nnc2s/c(=C\c3ccc(Cl)cc3)c(=O)n12	> 100 µM (inactive)
O=C(/C=C/c1ccccc1)NC1C=Nc2ccc([N+](=O)[O-])cc2NC1=O (configuration not stated)	> 100 µM (inactive)
Cc1cccc(C(C)(C)C)c1NC(=O)CCc1n[nH]c(=S)o1	> 100 µM (inactive)
O=[N+]([O-])c1ccc2oc(=N/c3ccccc3)/c(=N\c3ccccc3)[nH]c2c1	70.5 µM (inactive)
CN(C)/N=C1\C=C2CC[C@H](O[Si](C)(C)C(C)(C)C)[C@@]2(C)CC1	21.7 µM (inactive)
CCOC(=O)/C(=N\Nc1ccc(-n2c(C)nc3ccccc3c2=O)cc1)C(C)=O	25.6 µM (inactive)
CCOC(=O)C(NC(=O)CC)(N1CCN(c2cc3c(cc2F)c(=O)c(C(=O)O)cn3C2CC2)CC1)C(F)(F)F (configuration not stated)	> 100 µM (inactive)
NC(=O)c1csc(C2C=CC(CO)O2)n1 (configuration not stated)	> 100 µM (inactive)
NC1=CC(C(=O)c2ccncc2)c2nc3ccccc3nc21 (configuration not stated)	> 100 µM (inactive)
COC1/C=C/C(C)C(C(C)C(OC)C(C)CCC(=O)C(C)C(CC(=O)O)OC)OC(=O)/C=C/C=C(\C)CC(OC)CC2=CC(=O)O[C@H](C2)C(C)C(OC)CC(OC)/C=C/C(C)C(OC)C1 (some centres not stated)	0.396 µM (active)
CN(C)C1C(O)=C(C(=O)NCN2CCCC2)C(=O)C2(O)C(O)=C3C(=O)c4c(O)cccc4C(C)(O)C3CC12 (configuration not stated)	> 100 µM (inactive)
Cc1nc2ccccc2[s+]c1-c1cnc(NC#N)nc1C(=O)Nc1cccc(Cl)c1	> 100 µM (inactive)
O=C1/C(=C2\Sc3c(ccc(Cl)c3Cl)C2=O)Sc2c1ccc(Cl)c2Cl	> 100 µM (inactive)
CC(=O)c1c(-c2ccccc2)c(-c2ccc(OCCN(C)C)cc2)n2ccccc12	17.5 µM (inactive)
C=C1C(=O)O[C@@H]2[C@H](O)[C@@H](C)[C@@H]3C=CC(=O)[C@@]3(C)[C@@H](OC(=O)/C(C)=C/C)[C@H]12	0.774 µM (active)
